- assay_system: human glucagon receptor (human, UniProt P47871 26-477)
- procedure_text: cell-based or functional assay
measurement_kind: cAMP EC50

Q) Consider the binder IP298 (Fc fusion) YSEGTFTSDVSSYLERQAIDEFIAWLLKGGAAAGGSGSTASSGSGSATGGGGAATHTCPPC and give its recorded cAMP EC50.
A) > 13.1 µM

Q) Consider the binder IP379 (Fc fusion) YSEGTHTSDFSKLLEEEAVRLFIEWLLAGGGGGGSGGGGSGGGGSGGGGSATHTCPPC and give its recorded cAMP EC50.
A) > 13.2 µM

Q) Consider the binder IP258 (Fc fusion) YSEGTFTSDYSKLLDEEAVRLFIEWLVKGPGGGGGSGGGGSGGGGSGGGGSATHTCPPCPAPEF and give its recorded cAMP EC50.
A) > 19 µM

Q) Consider the binder IP172 (Fc fusion) HGEGTFTSDVSSYMERQAIDEFIAWLLAGAAAGGSGSTASSGSGSATGGGGAATHTCPPCPAPEF and give its recorded cAMP EC50.
A) > 15 µM

Q) Consider the binder IP264 (Fc fusion) YSEGTFTSDYSKLLEEEAVRLFIEWLVKGKGGGGGSGGGGSGGGGSGGGGSATHTCPPCPAPEF and give its recorded cAMP EC50.
A) > 9.8 µM

// data source = patent US20160185837A1
